- Procedure Details: Inhibition of rat intestinal alpha-glucosidase
Let's look at some molecules and their measured Ki.
Respond with the bare value in µM.

Past entries and their recorded results:
{"columns": ["Molecule", "Unit Spec", "Ki"],
 "data": [
  ["CCOC(=O)[C@H]1[C@H](C2O[C@@H]3OC(C)(C)O[C@@H]3[C@H]2OCc2ccccc2)[C@@H](C(=O)OCC)N[C@H]1c1cc(Cl)ccc1Cl (single isomer, unassigned)", "µM", 65],
  ["CCOC(=O)[C@H]1[C@H]([C@@H]2O[C@@H]3OC(C)(C)O[C@@H]3[C@H]2OCc2ccccc2)[C@@H](C(=O)OCC)N[C@H]1c1cccc([N+](=O)[O-])c1", "µM", 33],
  ["CCOC(=O)[C@H]1[C@H](C2O[C@@H]3OC(C)(C)O[C@@H]3[C@H]2OCc2ccccc2)[C@@H](C(=O)OCC)N[C@H]1c1cccc(Cl)c1 (single isomer, unassigned)", "µM", 79],
  ["CCOC(=O)[C@H]1[C@H](C2O[C@@H]3OC(C)(C)O[C@@H]3[C@H]2OCc2ccccc2)[C@@H](C(=O)OCC)N[C@H]1c1ccc(Br)cc1 (single isomer, unassigned)", "µM", 36]
]}

Give the value of Ki reported for the following: CCOC(=O)[C@H]1[C@H](C2O[C@@H]3OC(C)(C)O[C@@H]3[C@H]2OCc2ccccc2)[C@@H](C(=O)OCC)N[C@H]1c1ccc(F)cc1 (single isomer, unassigned)
40

Data origin: ChEMBL document CHEMBL1139071
